- ASSAY TEXT: NCI Yeast Anticancer Drug Screen. Data for the mec2-1 strain (AID 157)
- SETTINGS: S. cerevisiae mec2-1 strain, at 50.0 µM, hits give high values
- Protocol: Growth inhibition of yeast strains with defined genetic alterations is measured as a screen for potential anti-cancer activity. Selected strains with alterations in DNA damage repair or cell cycle control were exposed to compounds and growth inhibition was measured relative to vehicle treated controls. The strain used in this assay is mec2-1
Compounds without any hit were thinned out: in the full panel of roughly 79,000, 15% have a hit.

MOLECULE | growth inhibition / %
O=C(N/N=C/c1ccc(O)cc1)c1ccccc1NC(=O)C1CC1 | 23.7
CC1CC=CCC1C1OCCO1 (configuration not stated) | 1.6
O=C(O)c1ccccc1C(=O)OCC1CCc2ccccc2C1 (configuration not stated) | 26.8
CCCCCCCCCCCCCCCC(=O)OCC(O)C1OC(=O)C(O)=C1O (configuration not stated) | -0.75
CC(=O)Nc1ccc(C(F)(F)F)cc1 | -7.75
CCOC(=O)N1C(=O)c2ccccc2C1=O | -13.2
C[s+]1c2ccccc2c2ccccc21 | -46.4

###

- ASSAY TEXT: NCI Yeast Anticancer Drug Screen. Data for the mlh1 rad18 strain (AID 175)
- SETTINGS: S. cerevisiae mlh1 rad18 strain growth inhibition; at 50.0 µM; hits give high values
About 79,000 compounds went through this panel and 15% of them were active in at least one assay; those are over-represented in the sample as a whole. Activity calls are given as the source filed them. No stated cut-off is given here; in the data, active means growth inhibition above about 70%; inactive means the rest. Where a SMILES comes first, the peptide text is derived from it. The star is where a group is joined. Boc = CC(C)(C)OC(=O)*; OBn = c1ccc(CO*)cc1
Reported growth inhibition values for a set of molecules

MOLECULE | growth inhibition
CC(C)CC(NC(=O)OC(C)(C)C)C(=O)NC(CCC(=O)OCc1ccccc1)C(N)=O (stereo not drawn) (Boc-Leu-Glu(OBn)-NH2; configuration not given here) | 4.65% (inactive)
S=C1NCCOc2ccccc21 | -4.55% (inactive)
Cc1cc(N(CCC#N)CCC#N)ccc1/C(N=Nc1ccc(Cl)cc1)=N\NC(=O)c1ccccc1 | -31.1% (inactive)
O=C(O)C(Cc1ccccc1)c1ccc(Cl)cc1 (stereo not given) | 25.9% (inactive)
CCOC1C[C@H]2C[C@H]3[C@@H]4CC=C5C[C@@H](OC(C)=O)CC[C@]5(C)[C@H]4CC[C@]3(C)C2=C(C)O1 (stereo not given in full) | 20.6% (inactive)

###

- ASSAY TEXT: NCI Yeast Anticancer Drug Screen. Data for the mec2-1 strain (AID 157)
- SETTINGS: S. cerevisiae mec2-1 strain, at 50.0 µM
Compounds without any hit were thinned out: in the full panel of roughly 79,000, 15% have a hit. Activity calls are given as the source filed them. Cut-off read from the data, not from the text of the source: active = growth inhibition above about 70%; inactive = the rest. Where a SMILES comes first, the peptide text is derived from it. The star is where a group is joined. Cbz = O=C(OCc1ccccc1)*; Boc = CC(C)(C)OC(=O)*; OSu = O=C1CCC(=O)N1O*; Bn = c1ccc(C*)cc1
Labels: 1.0 for active, 0.0 for inactive

COMPOUND | DISCRETE LABEL
FC(F)(F)c1cccc(NC(=S)Nc2ccccc2S)c1 | 0.0
COc1cc2c(cc1OC)C(c1ccc(N=Cc3ccc(N(C)C)cc3)cc1)N(C(=S)Nc1cc(Cl)ccc1Cl)CC2 (centres undefined) | 0.0
OCC1=CC(c2ccccc2)(c2ccccc2)c2ccccc21 | 1.0
[O-]c1c[n+](CCCC[n+]2cc([O-])on2)no1 | 0.0
CCN(CC)CCCC(C)NC1CCCc2cc3c(cc21)C(=O)c1ccccc1C3=O (centres undefined) | 0.0
CC1(C)CCC(C)(C)c2cc(C(=O)O)ccc21 | 0.0
CCOC(=O)C1=NN(c2ccccc2)C(=O)/C1=C\N1CC(=O)NC1=S | 0.0
C=C(C)c1nc(N)nc(-c2cccc(-c3nc(N)nc(C(=C)C)n3)c2)n1 | 0.0
O=[N+]([O-])c1ccc2c(c1)C(O)c1ccccc1-2 (centres undefined) | 0.0
C[N+]1=C2[B-](C(C)(C)C)=[N+](C(C)(C)C)[B-]2(C(C)(C)C)[N+](C)=C2[B-](C(C)(C)C)=[N+](C(C)(C)C)[B-]21C(C)(C)C (centres undefined) | 0.0
Fc1ccccc1C(Nc1nc2ccccc2s1)Nc1nc2ccccc2s1 | 0.0
CCC1SC(C)C(=O)NC1=O (centres undefined) | 0.0
CCN(CC)CCCCCCCNc1nccc2ccccc12 | 0.0
N#Cc1cnn(-c2ccc(Br)cc2)c1N | 0.0
O=c1[nH]c2c(Cl)cccc2c2ccccc12 | 0.0
O=[N+]([O-])c1ccccc1N=Nc1c(O)[nH]c2c(Cl)cc(Cl)cc12 | 0.0
CC(C)CCC(=S)N1CCN(c2ccccc2)CC1 | 0.0
[Mn].[NH-]C(CSSCC(N)C(=O)O)C(=O)O (centres undefined) | 0.0
COc1ccc(NNc2ccc(OC)cc2)cc1 | 0.0
O=C1OC(c2ccc(O)c(O)c2)(c2ccc(O)c(O)c2)c2ccccc21 | 0.0
Cc1cccc(C)n1 | 0.0
CCOC(=O)NC(Nc1ncccn1)(C(=O)OCC)C(F)(F)F (centres undefined) | 0.0
CC(C)(C)OC(=O)NC(Cc1ccc(OCc2ccccc2)cc1)C(=O)NC(CCCCNC(=O)OCc1ccccc1)C(=O)NC(CCCCNC(=O)OCc1ccccc1)C(=O)ON1C(=O)CCC1=O (centres undefined) (Boc-Tyr(Bn)-Lys(Cbz)-Lys(Cbz)-OSu; configuration not given here) | 0.0
O=C1CC(c2ccc(Cl)cc2)NC(c2ccc(Cl)cc2)C1 (centres undefined) | 0.0
COC(=O)C(=[N+]=[N-])C(=O)c1ccc([N+](=O)[O-])cc1 | 0.0
O=P(CCCCBr)(NCc1ccccc1)c1ccccc1 (centres undefined) | 0.0
CN(C)Cc1c(CC(O)(c2ccccc2)c2ccccc2)ccc2ccccc12 | 0.0
CC1C(c2ccccc2)=NN(C)c2ccccc21 (centres undefined) | 0.0
O=[N+]([O-])c1ccc(/C(CBr)=N/N2CCCCC2)cc1 | 0.0
Cc1ccc(NC(=O)C2C(=O)N(c3ccc(C)cc3)C(=O)/C2=N\NC(N)=S)cc1 (centres undefined) | 0.0
c1ccc2sc(SCSc3nc4ccccc4s3)nc2c1 | 0.0
CC1(C(=O)O)CCC(C(=O)Nc2ccccc2)C1(C)C (centres undefined) | 0.0
Cc1ccc(/C(O)=C/c2nc3ccc([N+](=O)[O-])cc3nc2/C=C(\O)c2ccc(C)cc2)cc1 | 0.0
c1ccc(Cc2nnc(Cc3ccccc3)nn2)cc1 | 0.0
BrC1(Br)C2COCOCC21 (centres undefined) | 0.0
CCCCCCCC/C=C\CCCCCCCC(=O)N(C)CC(=O)O | 0.0
COC(=O)C1(CCC(C)=O)CCC(C)C1=O (centres undefined) | 0.0
Cc1c2oc3c(C)ccc(C(=O)NCCN4CCN(c5ccccc5)CC4)c3nc-2c(C(=O)NCCN2CCN(c3ccccc3)CC2)c(N)c1=O | 0.0
O=S1(=O)C2CCC(C2)C1Cl (centres undefined) | 0.0
Cc1cc(N(CCC#N)S(=O)(=O)c2ccccc2)ccc1C=Nc1ccc(C(=O)O)cc1 | 0.0
O=[N+]([O-])c1ccc2cccc3c2c1CC3 | 0.0
O=S(=O)(Nc1ccccc1Cl)c1ccc(F)cc1 | 0.0
O=C1c2ccc3c([nH]c4ccccc43)c2C(=O)N1c1ccccc1 | 0.0
Cc1ccc2c(c1)C1(c3ccc(Cl)c(Cl)c3)Oc3ccc(C)cc3C(c3ccc(Cl)c(Cl)c3)(O2)O1 | 0.0
